- testDescription: LogP of fragrance raw materials
Structures can show the parent of a compound that is named as a salt.
# logP values compiled below
Just the number.

Sample records with logP:
* COC(Cc1ccccc1)OC | 1.93
* COC(=O)c1ccccc1 [METHYL BENZOATE] | 1.83
* CC(=O)OCCC(C)C [ISOAMYL ACETATE] | 2.26
* CC(=O)OCC=C(C)C [PRENYL ACETATE] | 2.18
* O=COCCc1ccccc1 [PHENYLETHYL FORMATE] | 2.02
* O=CCc1ccccc1 | 1.54
* OCCc1ccccc1 [PHENYLETHYL ALCOHOL BA FREE, PHENYLETHYL ALCOHOL] | 1.57
* COc1cc(C=O)ccc1O | 1.05

Can you share its logP? I mean this molecule: COC(=O)c1ccccc1O [METHYL SALICYLATE PF, METHYL SALICYLATE]
2.6

Note, next up: CC(=O)OC1CCCCC1 [CYCLOHEXYL ACETATE]
2.64

====

- testDescription: physchem
Overview of recorded logP for various molecules
Please give only the number in your answer, with no unit.

• O=Cc1ccccc1 [BE[…], BENZALDEHYDE] = 1.71

Give the measured logP of COC(=O)c1ccccc1N [METHYL ANTHRANILATE (=130085), METHYL ANTHRANILATE] .
2.26

Let us now turn to CCOC(=O)c1ccccc1 [ETHYL BENZOATE]
2.32

For `c1ccc2[nH]ccc2c1` then?
2.05

For `CCOc1cc(C=O)ccc1O` then?
1.55

Another molecule: COC(=O)Cc1ccccc1 [METHYL PHENYLACETATE]
2.08

# iterate: CCOC(=O)Cc1ccccc1 [ETHYL PHENYL ACETATE]
2.57

====

- testDescription: LogP of fragrance raw materials
Counter-ions that a name gives are not always drawn.
Rule for this label: TRUE means logP is less than 2; FALSE means logP is at least 2.

Here are 5 compounds together with their reported answers.
* CCCC(=O)OCC [ETHYL BUTYRATE] | TRUE
* CC=Cc1ccc(O)c(OC)c1 | FALSE
* CCCCOC(C)=O [BUTYL ACETATE] | TRUE
* CCOC(=O)CC [ETHYL PROPIONATE] | TRUE
* O=COCc1ccccc1 [BENZYL FORMATE] | TRUE

Now let's try a different one.
Does CCCCCC(=O)OC [METHYL CAPROATE] have logP strictly under 2?
FALSE
